Test system: Escherichia coli TOP10;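 further: peptides expressed intracellularly from a pBAD plasmid library in pooled LB shake-flask culture, induced with 0.3% L-arabinose, DNA abundance read by NGS, three biological replicates, DESeq2 with apeglm shrinkage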
Experiment: shrunken log2 fold change of peptide-encoding DNA abundance (4.5 h post-induction vs induction); higher = less antimicrobial activity (less host growth inhibition)
Settings: time post-induction: 4.5 h; library: site-saturation at positions 5, 18, 19, 20
# class assignment by measured shrunken log2 fold change: class 0: < -0.2; class 1: ≥ -0.2 and < 0.06; class 2: ≥ 0.06

For orientation, consider the following solved cases.
RRIRHRPPRLPRPRPRPQFPPRP    class 1
RRIRYRPPRLPRPRPRPTWLPRP    class 1
RRIRKRPPRLPRPRPRPDDLPRP    class 2
RRIRHRPPRLPRPRPRPYNLPRP    class 0
RRIRYRPPRLPRPRPRPQSKPRP    class 0

Next, consider the following sequence.
Class? Entry: RRIRPRPPRLPRPRPRPHHTPRP
class 0
